# TARGET_DESC: IRAK4 (Homo sapiens, UniProt Q9NWZ3)
# Construct: endogenous in cells; host or cells: Karpas299
# Sequence (Q9NWZ3 whole entry): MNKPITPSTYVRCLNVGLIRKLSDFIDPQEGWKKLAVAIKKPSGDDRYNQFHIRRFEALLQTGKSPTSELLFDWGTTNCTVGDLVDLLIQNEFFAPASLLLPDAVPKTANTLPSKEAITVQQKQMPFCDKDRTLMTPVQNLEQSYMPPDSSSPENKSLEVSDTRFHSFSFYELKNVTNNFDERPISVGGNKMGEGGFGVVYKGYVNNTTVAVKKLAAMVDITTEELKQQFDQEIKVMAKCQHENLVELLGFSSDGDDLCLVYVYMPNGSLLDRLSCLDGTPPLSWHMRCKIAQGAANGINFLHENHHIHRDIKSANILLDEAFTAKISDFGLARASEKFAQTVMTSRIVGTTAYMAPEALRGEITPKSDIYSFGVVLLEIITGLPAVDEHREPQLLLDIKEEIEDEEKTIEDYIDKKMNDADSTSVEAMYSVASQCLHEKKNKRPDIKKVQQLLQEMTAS
# PROTOCOL_TEXT: IRAK4 Degradation Assay with Human Serum (Karpas299, HTRF/TR-FRET)
# Format: cell-based
# CONDITION_DESCRIPTION: Karpas-299 in human serum, 24 hrs treatment; read-out: IRAK4 degradtion with human serum assay DC50
# Experimental: IRAK4 degradation was measured using a TR-FRET-based method (Degorce, François, et al. Current chemical genomics. 2009, 3: 22). […] IRAK4 level was quantitated using the HTRF kit as described by the manufacturer manual (Cisbio). FRET signals were measured using a PHERAstar FSX reader (BMG Labtech). […] The inhibition (degradation) percentage of the compound was calculated by the following equation: […]
Measured log10(DC50) of individual entries
METRIC_NAME: log10(DC50) (log10 of the value in nM)

COMPOUND | log10(DC50)
CC(C)(O)c1cc2nn(C3CCC4(CC3)CCN(C3CN(c5cc(F)c([C@H]6CCC(=O)NC6=O)c(F)c5)C3)CC4)cc2cc1NC(=O)c1ccc2cc(C#N)cnn12 | 1.52
CC(C)(O)c1cc2nn([C@H]3CC[C@H](N4CCN([C@H]5C[C@H](c6ccc(N[C@H]7CCC(=O)NC7=O)cc6)C5)CC4)CC3)cc2cc1NC(=O)c1ccc2cc(C#N)cnn12 | 0.57
CC(C)(O)c1cc2nn([C@H]3CC[C@H](N4CCN([C@H]5C[C@@H](c6ccc(N[C@H]7CCC(=O)NC7=O)cc6)C5)CC4)CC3)cc2cc1NC(=O)c1ccc2cc(C#N)cnn12 | 0.97
Cn1c(=O)n(C2CCC(=O)NC2=O)c2cccc(CCCN3CCN(C45CC(n6cc7cc(NC(=O)c8ccc9cc(C#N)cnn89)c(C(C)(C)O)cc7n6)(C4)C5)CC3)c21 (centres unmarked) | 1.20
C[C@H]1CN(C(=O)C2CN(c3cc(F)c([C@H]4CCC(=O)NC4=O)c(F)c3)C2)CCN1[C@H]1CC[C@H](n2cc3cc(NC(=O)c4ccc5cc(C#N)cnn45)c(C(C)(C)O)cc3n2)CC1 | 1.81

These entries and their values trace back to patent US20250195513A1.
